# target or test system: T1, amino acid residues 26-148 of human ANGPTL4 fused in-line to mouse IgG2a (hANGPTL4-mFc) (human)
# T1 construct: contains the N-terminal coiled-coil region
# T1 chain: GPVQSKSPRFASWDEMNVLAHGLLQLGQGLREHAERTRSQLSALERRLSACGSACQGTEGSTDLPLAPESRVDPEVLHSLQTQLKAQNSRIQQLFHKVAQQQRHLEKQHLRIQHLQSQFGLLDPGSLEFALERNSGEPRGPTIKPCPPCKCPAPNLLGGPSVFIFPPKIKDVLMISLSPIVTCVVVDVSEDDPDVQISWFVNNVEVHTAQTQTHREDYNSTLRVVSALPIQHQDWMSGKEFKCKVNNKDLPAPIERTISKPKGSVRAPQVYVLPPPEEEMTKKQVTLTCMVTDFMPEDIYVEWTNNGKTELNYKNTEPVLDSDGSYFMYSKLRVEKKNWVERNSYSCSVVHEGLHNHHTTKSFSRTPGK
# method: SPR (Biacore T100), hANGPTL4-mFc captured by anti-mouse IgG, antibody injected, 25° C.
readout name: pKd
As a rule, pKd stands for the negative log10 of the concentration, concentration in M.

H1H638P (antibody, V domains shown, Fully human antibody, H1H prefix (human IgG1)) VH: EVQLVESGGGLVQPGGSLRLSCVASGFTFSSYDMHWVRQVAGKGLEWVAAIGTAGDTYYPVSVKGRFTISRENAKNSLSLHMNSLRAGDTAVYYCARGDSRNYYVGDYFDYWGQGTLVTVSS VL: DIQMTQSPSTLSASVGDRVTITCRASQSISRWLAWYQQKPGKAPKVLIYKASSLKSGVPSRFSGSGSGTEFTLTISSLQSDDFATYYCQQYNSYSRTFGQGTKVEIK ... 9.71
H1H295P (antibody, V domains shown, Fully human antibody, H1H prefix (human IgG1)) VH: EVQLVESGGGLVQPGGSLRLSCAASGFTFSTYDMHWVRQAPGKGLEWVSAIGSAGDTYYPGSVKGRFTISRDNAKSSLFLQMNSLRAGDTALYYCARGDSRNYFVGDYFDYWGQGTLVTVSS VL: DIQMTQSPSTLSASVGDRVTITCRASQSIGTWLAWYQQKPGKAPKILIYKASSLEGGVPSRFSGSGSGTEFTLTISSLQPDDFANYYCQQYNSFYRTFGQGTKVEIK ... 10.51

Exam item: State the recorded pKd for this entry: H1H644P (antibody, V domains shown, Fully human antibody, H1H prefix (human IgG1)) VH: EVQLVESGGGLVQPGGSLRLSCAASGFTFSSYDMHWVRQVAGKGLEWVSAIGTAGDTYYPVSVKGRFTISRENAKNSLYLHMNSLRAGDTAVYYCARGDSRNYYVGDYFDYWGQGTLVTVSS VL: DIQMTQSPSTLSASVGDRVTITCRASQSISRWLAWYQQKPGKAPKVLIYKASNLESGVPSRFSGSGSGTEFTLTISSLQPDDFATYYCQQYNTYSRTFGQGTKVEIK
Marked response: 9.95
